- Test system: NCI-H226 lung
- EXPERIMENT_NOTES: NCI-60 one-dose screen, 48 h (100 = growth as untreated, 0 = no growth, -100 = all killed)
- ASSAY_CONTEXT: 10 µM unless noted
This is part of a sample that, as a whole, favours compounds with a hit. Of some 83,000 tested, about 20% had one in any assay. Calls of active or inactive are those of the source. Rule for the calls: active = growth percent below 10; inactive = the rest.
Entries and their growth

These recorded examples may help you get a feel for the data.
INSERT INTO results (molecule, observation_type, recorded_measurement) VALUES
  ('Nc1ccc2c(c1)C(=O)NC2=O', 'growth', '96.2% (inactive)'),
  ('O=[N+]([O-])c1cccc(-c2nc3sccn3c2-c2ccnc(NCCCNS(=O)(=O)c3ccc(Br)cc3)n2)c1', 'growth', '41% (inactive)'),
  ('O=[N+]([O-])c1c(F)cccc1Nc1cccc(F)c1', 'growth', '94.7% (inactive)'),
  ('CN1CCCCC1CCN1c2ccccc2Sc2ccc(Br)cc21 (stereo unspecified)', 'growth', '89.9% (inactive)');

# lookup: growth of CC(=O)OCC(=O)C1CCC=CC1OC(C)=O (stereo unspecified)
92.6% (inactive)

# lookup: growth of CN1CCN(Cc2ccc(NC(=O)c3cncc(C#Cc4cnc(N)c5cccnc45)c3)cc2C(F)(F)F)CC1
-18.6% (active)
